// data source = ChEMBL document CHEMBL1157126

- assayedTarget: Platelet-derived growth factor receptor beta (Homo sapiens)
- Sequence (P09619 whole entry): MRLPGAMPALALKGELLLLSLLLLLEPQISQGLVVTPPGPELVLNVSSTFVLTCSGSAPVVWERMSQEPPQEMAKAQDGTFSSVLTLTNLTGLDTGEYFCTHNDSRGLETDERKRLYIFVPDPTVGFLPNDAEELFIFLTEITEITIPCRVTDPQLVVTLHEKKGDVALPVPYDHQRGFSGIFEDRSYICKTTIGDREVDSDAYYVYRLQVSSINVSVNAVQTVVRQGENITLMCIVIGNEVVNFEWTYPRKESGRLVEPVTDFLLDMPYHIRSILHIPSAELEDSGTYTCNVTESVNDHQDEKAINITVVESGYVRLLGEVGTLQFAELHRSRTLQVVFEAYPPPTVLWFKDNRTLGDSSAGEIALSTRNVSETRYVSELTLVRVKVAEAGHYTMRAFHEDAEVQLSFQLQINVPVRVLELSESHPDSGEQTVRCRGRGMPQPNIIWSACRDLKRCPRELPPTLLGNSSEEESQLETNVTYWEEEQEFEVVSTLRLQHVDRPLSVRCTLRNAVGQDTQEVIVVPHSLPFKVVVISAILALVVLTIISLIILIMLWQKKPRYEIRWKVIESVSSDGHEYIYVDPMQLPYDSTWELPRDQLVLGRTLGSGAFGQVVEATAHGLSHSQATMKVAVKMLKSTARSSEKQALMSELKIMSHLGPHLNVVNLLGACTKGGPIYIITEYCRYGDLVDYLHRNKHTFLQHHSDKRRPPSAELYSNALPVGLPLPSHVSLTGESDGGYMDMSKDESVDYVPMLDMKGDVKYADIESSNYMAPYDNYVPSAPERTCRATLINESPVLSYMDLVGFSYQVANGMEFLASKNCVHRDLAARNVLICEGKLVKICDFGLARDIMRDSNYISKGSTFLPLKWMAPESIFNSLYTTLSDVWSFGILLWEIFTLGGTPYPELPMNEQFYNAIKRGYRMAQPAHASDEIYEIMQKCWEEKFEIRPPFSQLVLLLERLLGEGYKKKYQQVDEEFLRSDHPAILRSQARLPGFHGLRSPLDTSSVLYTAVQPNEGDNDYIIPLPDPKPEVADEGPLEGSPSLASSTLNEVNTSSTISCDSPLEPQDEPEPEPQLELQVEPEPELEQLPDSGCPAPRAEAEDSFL
- experimentDescription: Inhibition of PDGFRbeta phosphorylation in human SF539 cells after 10 mins by FLISA
pIC50: −log10 of the molar value.
measure: pIC50

[[record]]
inputsmiles = "Nc1nc(Nc2cccc(F)c2)c2cc(Cc3ccc(Cl)cc3Cl)[nH]c2n1"
observedmeasurement = 3.74

[[record]]
inputsmiles = "Nc1nc(Nc2ccc(Cl)cc2F)c2cc(Cc3ccc(Cl)cc3Cl)[nH]c2n1"
observedmeasurement = 4.61

[[record]]
inputsmiles = "COc1ccc(OC)c(Cc2cc3c(Nc4cccc(Br)c4)ncnc3[nH]2)c1"
observedmeasurement = 3.77


(A) Cc1ccccc1Cc1cc2c(Nc3cccc(Br)c3)ncnc2[nH]1
(B) CC(C)c1ccccc1Nc1nc(N)nc2[nH]c(Cc3ccc(Cl)cc3Cl)cc12
# input Pick one: A or B . Which has the bigger pIC50 number? Provide the label of your selected option as the answer.
# output B
(B: 4.37, A: 3.74)

(A) Clc1ccc(Cc2cc3c(Nc4cccc(Br)c4)ncnc3[nH]2)c(Cl)c1
(B) FC(F)(F)c1cccc(Nc2ncnc3[nH]c(Cc4ccc(Cl)cc4Cl)cc23)c1
# input Between the entries labeled A and B , whose measured pIC50 is lower? Provide the label of your selected option as the answer.
# output A
(A: 3.66, B: 3.96)

----------
- assayedTarget: Epidermal growth factor receptor (Homo sapiens, UniProt P00533)
- Sequence (P00533 whole entry): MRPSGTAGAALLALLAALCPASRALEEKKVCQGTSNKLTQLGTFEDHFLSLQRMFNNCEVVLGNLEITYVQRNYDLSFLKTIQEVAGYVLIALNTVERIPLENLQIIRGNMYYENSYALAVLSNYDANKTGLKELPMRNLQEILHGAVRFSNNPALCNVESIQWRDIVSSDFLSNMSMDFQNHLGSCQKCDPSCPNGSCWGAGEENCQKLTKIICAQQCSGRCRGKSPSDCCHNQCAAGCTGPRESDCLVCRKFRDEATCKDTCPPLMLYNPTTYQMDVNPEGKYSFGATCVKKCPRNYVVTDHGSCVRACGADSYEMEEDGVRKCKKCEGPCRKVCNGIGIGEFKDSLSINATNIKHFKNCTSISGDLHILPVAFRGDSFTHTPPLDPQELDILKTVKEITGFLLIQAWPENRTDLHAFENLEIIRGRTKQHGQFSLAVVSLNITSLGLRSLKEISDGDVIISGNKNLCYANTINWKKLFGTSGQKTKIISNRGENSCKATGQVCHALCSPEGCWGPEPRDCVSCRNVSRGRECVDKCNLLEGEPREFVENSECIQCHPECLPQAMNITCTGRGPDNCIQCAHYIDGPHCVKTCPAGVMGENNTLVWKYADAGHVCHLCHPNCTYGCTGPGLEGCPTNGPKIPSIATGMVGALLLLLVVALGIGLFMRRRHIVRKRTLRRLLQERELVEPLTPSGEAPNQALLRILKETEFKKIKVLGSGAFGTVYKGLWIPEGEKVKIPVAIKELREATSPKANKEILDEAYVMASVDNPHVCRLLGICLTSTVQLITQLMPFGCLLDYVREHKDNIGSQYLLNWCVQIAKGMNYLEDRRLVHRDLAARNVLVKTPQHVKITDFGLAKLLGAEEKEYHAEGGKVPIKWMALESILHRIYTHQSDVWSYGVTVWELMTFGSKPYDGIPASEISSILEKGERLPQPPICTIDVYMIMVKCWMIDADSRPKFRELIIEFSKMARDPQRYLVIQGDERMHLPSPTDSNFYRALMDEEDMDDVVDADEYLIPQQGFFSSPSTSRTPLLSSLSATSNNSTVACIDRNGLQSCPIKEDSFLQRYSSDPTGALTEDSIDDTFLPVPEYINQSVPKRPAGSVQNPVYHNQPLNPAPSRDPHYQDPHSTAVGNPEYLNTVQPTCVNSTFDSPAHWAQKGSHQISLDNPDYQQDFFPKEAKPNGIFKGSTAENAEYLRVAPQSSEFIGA
- experimentDescription: Inhibition of EGFR phosphorylation in human A431 cells after 10 mins by FLISA
pIC50: −log10 of the molar value.
measure: pIC50

[[record]]
inputsmiles = "CC(C)c1ccc(Nc2nc(N)nc3[nH]c(Cc4ccc(Cl)cc4Cl)cc23)cc1"
measure = "pIC50"
observedmeasurement = 4.34


(A) C#Cc1cccc(Nc2nc(N)nc3[nH]c(Cc4ccc(Cl)cc4Cl)cc23)c1
(B) Nc1nc(Nc2cccc(F)c2)c2cc(Cc3ccc(Cl)cc3Cl)[nH]c2n1
(C) CC(C)c1ccccc1Nc1nc(N)nc2[nH]c(Cc3ccc(Cl)cc3Cl)cc12
(D) Nc1nc(Nc2ccc(Cl)cc2F)c2cc(Cc3ccc(Cl)cc3Cl)[nH]c2n1
# input // ranking: key=pIC50, reverse=True # list labels per requested ordering
# output D, A, C, B
(D: 5.60, A: 4.26, C: 4.02, B: 3.79)

----------
- assayedTarget: UniProt P35968
- Sequence (P35968 whole entry): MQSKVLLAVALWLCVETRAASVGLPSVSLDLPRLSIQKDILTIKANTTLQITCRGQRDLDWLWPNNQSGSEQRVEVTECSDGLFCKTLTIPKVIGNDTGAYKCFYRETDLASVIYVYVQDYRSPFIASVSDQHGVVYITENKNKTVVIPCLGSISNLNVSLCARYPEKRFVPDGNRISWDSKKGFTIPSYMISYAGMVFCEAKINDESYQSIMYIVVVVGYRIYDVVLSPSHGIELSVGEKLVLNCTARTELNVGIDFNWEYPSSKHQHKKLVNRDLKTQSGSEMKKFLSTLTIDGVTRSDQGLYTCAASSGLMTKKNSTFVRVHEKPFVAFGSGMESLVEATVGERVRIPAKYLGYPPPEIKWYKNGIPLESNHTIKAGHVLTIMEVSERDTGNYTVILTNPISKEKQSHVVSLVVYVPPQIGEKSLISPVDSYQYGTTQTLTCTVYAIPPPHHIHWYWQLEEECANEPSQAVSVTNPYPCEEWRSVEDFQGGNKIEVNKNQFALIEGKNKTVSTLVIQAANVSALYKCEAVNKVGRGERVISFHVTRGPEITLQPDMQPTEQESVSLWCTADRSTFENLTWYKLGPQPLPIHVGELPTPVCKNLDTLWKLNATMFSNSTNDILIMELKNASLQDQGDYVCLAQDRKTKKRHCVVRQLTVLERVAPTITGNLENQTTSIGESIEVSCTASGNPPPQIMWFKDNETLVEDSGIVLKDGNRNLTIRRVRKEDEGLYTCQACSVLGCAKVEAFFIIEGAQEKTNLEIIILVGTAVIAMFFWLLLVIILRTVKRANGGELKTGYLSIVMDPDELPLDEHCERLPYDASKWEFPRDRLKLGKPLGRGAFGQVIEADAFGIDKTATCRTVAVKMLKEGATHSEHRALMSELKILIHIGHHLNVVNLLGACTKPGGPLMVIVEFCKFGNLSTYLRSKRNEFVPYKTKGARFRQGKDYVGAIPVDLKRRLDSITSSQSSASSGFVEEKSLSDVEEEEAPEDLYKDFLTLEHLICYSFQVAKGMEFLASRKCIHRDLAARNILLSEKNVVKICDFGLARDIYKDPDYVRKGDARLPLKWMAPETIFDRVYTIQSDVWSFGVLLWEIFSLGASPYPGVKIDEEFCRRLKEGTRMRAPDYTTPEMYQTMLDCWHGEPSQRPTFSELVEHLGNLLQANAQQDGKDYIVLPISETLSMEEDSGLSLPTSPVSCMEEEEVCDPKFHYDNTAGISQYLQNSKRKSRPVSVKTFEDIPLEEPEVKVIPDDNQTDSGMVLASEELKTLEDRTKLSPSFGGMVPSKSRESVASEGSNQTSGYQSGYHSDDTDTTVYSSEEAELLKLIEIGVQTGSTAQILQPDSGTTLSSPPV
- experimentDescription: Inhibition of VEGFR2 phosphorylation in human U251 cells after 10 mins by FLISA
measure: IC50 (µM)

[[record]]
inputsmiles = "Nc1nc(Nc2ccc(C(F)(F)F)c(F)c2)c2cc(Cc3ccc(Cl)cc3Cl)[nH]c2n1"
measure = "IC50"
observedmeasurement = 113

[[record]]
inputsmiles = "Nc1nc(Nc2cccc(F)c2)c2cc(Cc3ccc(Cl)cc3Cl)[nH]c2n1"
measure = "IC50"
observedmeasurement = 0.3


(I) C#Cc1cccc(Nc2nc(N)nc3[nH]c(Cc4ccc(Cl)cc4Cl)cc23)c1
(II) Nc1nc(Nc2ccc(Br)cc2Cl)c2cc(Cc3ccc(Cl)cc3Cl)[nH]c2n1
# input Between the entries labeled I and II , whose measured IC50 is lower? Provide the label of your selected option as the answer.
# output II

(P) Nc1nc(Nc2ccc(Cl)cc2F)c2cc(Cc3ccc(Cl)cc3Cl)[nH]c2n1
(Q) Cc1ccccc1Cc1cc2c(Nc3cccc(Br)c3)ncnc2[nH]1
# input Between the entries labeled P and Q , whose measured IC50 is lower? Provide the label of your selected option as the answer.
# output Q
